# credit: ChEMBL document CHEMBL1135285

System: MT4
TEST DETAILS: Compound was tested for antiviral activity against HIV-IIIB in MT-4 cells in presence of 50% human serum
Format: functional, cell-based
The label is class 1 for EC50 below 0.4 µM and class 0 for EC50 equal to or exceeding 0.4 µM.

>>> print(df.to_string())
                                   molecule  answer_label
0  Cc1ccccc1OCC(=O)N[C@H](Cc1ccccc1)[C@H](O)C[C@@H](Cc1ccccc1)NC(=O)[C@@H](C(C)C)N1CCCNC1=O       class 0
1  Cc1cccc(C)c1OCC(=O)N[C@@H](Cc1ccccc1)[C@@H](O)C[C@H](Cc1ccccc1)NC(=O)[C@H](C(C)C)N1CCCNC1=O (single isomer, unassigned)       class 1
2  Cc1cc(N)cc(C)c1OCC(=O)N[C@H](Cc1ccccc1)[C@H](O)C[C@@H](Cc1ccccc1)NC(=O)[C@@H](C(C)C)N1CCCNC1=O       class 1
3  Cc1cccc(C)c1SCC(=O)N[C@H](Cc1ccccc1)[C@H](O)C[C@@H](Cc1ccccc1)NC(=O)[C@@H](C(C)C)N1CCCNC1=O       class 0
4  Cc1cc(F)cc(C)c1OCC(=O)N[C@H](Cc1ccccc1)[C@H](O)C[C@@H](Cc1ccccc1)NC(=O)[C@@H](C(C)C)N1CCCNC1=O       class 0

====

TEST SYSTEM: Human immunodeficiency virus type 1 protease (Human immunodeficiency virus 1) (UniProt Q72874)
TEST DETAILS: Inhibition of HIV protease at 0.5 nM
Hi, to clarify the labels: yes covers inhibition from 80% upward, no covers anything below 80%.

>>> print(df.to_string())
                                   structure  answer_label
 0  Cc1cccc(C)c1SCC(=O)N[C@H](Cc1ccccc1)[C@H](O)C[C@@H](Cc1ccccc1)NC(=O)[C@@H](C(C)C)N1CCCNC1=O            no
 1  Cc1cc(N)cc(C)c1OCC(=O)N[C@H](Cc1ccccc1)[C@H](O)C[C@@H](Cc1ccccc1)NC(=O)[C@@H](C(C)C)N1CCCNC1=O           yes
 2  Cc1cc(C)c(OCC(=O)N[C@H](Cc2ccccc2)[C@H](O)C[C@@H](Cc2ccccc2)NC(=O)[C@@H](C(C)C)N2CCCNC2=O)c(C)c1           yes
 3  CC(C)[C@H](C(=O)N[C@H](Cc1ccccc1)C[C@@H](O)[C@@H](Cc1ccccc1)NC(=O)COc1c(Cl)cccc1Cl)N1CCCNC1=O           yes
 4  Cc1ccccc1OCC(=O)N[C@H](Cc1ccccc1)[C@H](O)C[C@@H](Cc1ccccc1)NC(=O)[C@@H](C(C)C)N1CCCNC1=O           yes
 5  Cc1cc(C)cc(OCC(=O)N[C@H](Cc2ccccc2)[C@H](O)C[C@@H](Cc2ccccc2)NC(=O)[C@@H](C(C)C)N2CCCNC2=O)c1            no
 6  Cc1cccc(C)c1CCC(=O)N[C@H](Cc1ccccc1)[C@H](O)C[C@@H](Cc1ccccc1)NC(=O)[C@@H](C(C)C)N1CCCNC1=O            no
 7  Cc1ccnc(C)c1OCC(=O)N[C@H](Cc1ccccc1)[C@H](O)C[C@@H](Cc1ccccc1)NC(=O)[C@@H](C(C)C)N1CCCNC1=O            no
 8  CC(C)[C@H](C(=O)N[C@H](Cc1ccccc1)C[C@@H](O)[C@@H](Cc1ccccc1)NC(=O)COc1ccccc1)N1CCCNC1=O            no
 9  COc1cccc(OC)c1OCC(=O)N[C@H](Cc1ccccc1)[C@H](O)C[C@@H](Cc1ccccc1)NC(=O)[C@@H](C(C)C)N1CCCNC1=O            no
10  Cc1cc(F)cc(C)c1OCC(=O)N[C@H](Cc1ccccc1)[C@H](O)C[C@@H](Cc1ccccc1)NC(=O)[C@@H](C(C)C)N1CCCNC1=O           yes
